Target: ΔF508-CFTR (Homo sapiens, UniProt P13569, DEL508-508)
Construct: expressed in transfected cells
Sequence (P13569 with tags, fused parts or gaps DEL508-508): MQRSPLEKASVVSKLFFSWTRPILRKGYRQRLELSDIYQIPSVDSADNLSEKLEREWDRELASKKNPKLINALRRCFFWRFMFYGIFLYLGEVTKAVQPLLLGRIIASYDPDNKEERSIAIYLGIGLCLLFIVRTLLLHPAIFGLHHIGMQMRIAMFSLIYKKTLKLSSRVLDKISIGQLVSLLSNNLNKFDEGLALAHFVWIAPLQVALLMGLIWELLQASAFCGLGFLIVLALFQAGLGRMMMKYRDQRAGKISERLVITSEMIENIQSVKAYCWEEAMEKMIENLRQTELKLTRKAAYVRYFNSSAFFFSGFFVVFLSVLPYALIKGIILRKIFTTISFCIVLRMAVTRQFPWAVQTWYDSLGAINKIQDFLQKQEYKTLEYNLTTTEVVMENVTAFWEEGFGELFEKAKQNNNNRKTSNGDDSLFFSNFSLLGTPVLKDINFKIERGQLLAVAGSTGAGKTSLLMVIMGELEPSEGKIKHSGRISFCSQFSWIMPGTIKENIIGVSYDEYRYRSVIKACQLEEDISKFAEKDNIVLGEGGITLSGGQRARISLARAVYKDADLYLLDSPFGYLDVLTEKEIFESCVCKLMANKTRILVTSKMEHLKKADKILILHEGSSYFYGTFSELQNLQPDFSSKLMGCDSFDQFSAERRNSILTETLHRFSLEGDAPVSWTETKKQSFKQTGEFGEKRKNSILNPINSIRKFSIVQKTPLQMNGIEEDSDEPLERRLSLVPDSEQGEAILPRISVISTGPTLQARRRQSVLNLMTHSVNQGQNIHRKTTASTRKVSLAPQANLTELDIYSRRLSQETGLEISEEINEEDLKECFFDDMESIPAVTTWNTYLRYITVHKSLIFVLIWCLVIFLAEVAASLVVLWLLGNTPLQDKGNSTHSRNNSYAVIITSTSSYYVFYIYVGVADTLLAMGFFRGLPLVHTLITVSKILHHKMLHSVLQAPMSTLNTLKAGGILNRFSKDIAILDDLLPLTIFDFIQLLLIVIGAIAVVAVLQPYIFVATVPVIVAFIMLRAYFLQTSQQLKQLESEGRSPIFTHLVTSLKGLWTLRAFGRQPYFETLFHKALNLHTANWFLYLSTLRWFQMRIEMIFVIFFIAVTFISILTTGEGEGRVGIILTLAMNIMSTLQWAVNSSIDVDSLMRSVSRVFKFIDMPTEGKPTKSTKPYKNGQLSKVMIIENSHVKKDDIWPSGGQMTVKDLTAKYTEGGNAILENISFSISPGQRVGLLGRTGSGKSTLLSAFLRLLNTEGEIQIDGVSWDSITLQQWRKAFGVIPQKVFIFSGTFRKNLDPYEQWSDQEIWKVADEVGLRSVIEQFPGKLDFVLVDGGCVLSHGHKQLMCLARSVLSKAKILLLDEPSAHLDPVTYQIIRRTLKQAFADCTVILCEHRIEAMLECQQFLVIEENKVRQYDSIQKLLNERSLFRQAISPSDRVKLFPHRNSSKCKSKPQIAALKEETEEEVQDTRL
Assay: Membrane potential optical assay (FRET/VIPR), identification of correction compounds
Assay type: cell-based
Conditions: relative efficacy
Description: I) Membrane Potential Optical Methods for Assaying ΔF508-CFTR Modulation Properties of Compounds […] These voltage sensitive assays are based on the change in fluorescence resonant energy transfer (FRET) between the membrane-soluble, voltage-sensitive dye, DiSBAC2(3), and a fluorescent phospholipid, CC2-DMPE, which is attached to the outer leaflet of the plasma membrane and acts as a FRET donor. […]

{"columns": ["COMPOUND", "Emax"],
 "data": [
  ["CCCn1c(C(C)N2CCN(S(=O)(=O)c3ccccc3)CC2)nc2ccccc2c1=O (centres unmarked)", "25 to 100%"],
  ["CCC(c1nc2ccccc2c(=O)n1C)N1CCN(S(=O)(=O)c2ccc(OC)cc2)CC1 (centres unmarked)", "> 100%"],
  ["COc1ccc(C(=O)N2CCN(C(C)c3nc4cc(Cl)ccc4c(=O)n3C)CC2)cc1 (centres unmarked)", "< 25%"],
  ["Cc1ccc(S(=O)(=O)N2CCN(C(C)c3nc4cccc(Cl)c4c(=O)n3C)CC2)cc1 (centres unmarked)", "< 25%"],
  ["COc1ccc(S(=O)(=O)N2CCN(C(C)c3nc(OC(C)(C)C)c4ccccc4n3)CC2)cc1 (centres unmarked)", "> 100%"],
  ["CCc1nc2cccc(Cl)c2c(=O)n1C", "< 25%"],
  ["COc1ccc(S(=O)(=O)N2CCN(C(C)c3nc(N4CCCc5ccccc54)c4ccccc4n3)CC2)cc1 (centres unmarked)", "> 100%"],
  ["CC(NCC1CCCCN1)c1nc2ccccc2c(=O)n1C (centres unmarked)", "< 25%"],
  ["CC(c1nc2ccccc2c(=O)n1C)N1CCN(S(=O)(=O)c2ccc(Oc3ccccc3)cc2)CC1 (centres unmarked)", "< 25%"],
  ["COc1ccc(S(=O)(=O)N2CCN(C(C)c3nc(N4CC[C@H](O)C4)c4ccccc4n3)CC2)cc1 (some centres unmarked)", "25 to 100%"],
  ["Cn1c(CN2CCN(S(=O)(=O)c3ccc(Cl)cc3)CC2)nc2ccc(Cl)cc2c1=O", "25 to 100%"],
  ["COc1ccc(S(=O)(=O)N2CCN(C(C)c3nc(N4CCCC4C)c4ccccc4n3)CC2)cc1 (centres unmarked)", "> 100%"],
  ["CC(c1nc2ccc(Cl)cc2c(=O)n1C)N1CCN(C(=O)Nc2ccccc2)CC1 (centres unmarked)", "< 25%"],
  ["COc1ccc(S(=O)(=O)N2CCN(C(C)c3nc(OCC4(C)COCOC4)c4ccccc4n3)CC2)cc1 (centres unmarked)", "> 100%"],
  ["CC(c1nc2ccc(N)cc2c(=O)n1C)N1CCN(S(=O)(=O)c2ccc(Br)cc2)CC1 (centres unmarked)", "> 100%"],
  ["CCCCC(=O)N1CCN(C(C)c2nc3ccc(Cl)cc3c(=O)n2C)CC1 (centres unmarked)", "< 25%"],
  ["CCn1c(C(C)N2CCN(S(=O)(=O)c3ccccc3)CC2)nc2ccc(Cl)cc2c1=O (centres unmarked)", "25 to 100%"]
]}

###

Biological target: ΔF508-CFTR (Homo sapiens, UniProt P13569, DEL508-508)
Construct: expressed in transfected cells
Experiment: Membrane potential optical assay (FRET/VIPR), identification of correction compounds
Assay type: cell-based
Conditions: relative efficacy
Item-by-item account of Emax
QUANTITY: Emax

{"columns": ["MOLECULE", "QUANTITY", "RECORDED_VALUE"],
 "data": [
  ["Cc1ccc(S(=O)(=O)N2CCN(Cc3nc4ccc(Cl)cc4c(=O)n3C)CC2)cc1", "Emax", "< 25%"],
  ["COc1ccc(S(=O)(=O)N2CCN(C(C)c3nc(N4CCC(CCO)CC4)c4ccccc4n3)CC2)cc1 (centres unmarked)", "Emax", "> 100%"],
  ["CC(c1nc2ccccc2c(=O)n1C)N1CCN(S(=O)(=O)c2ccccc2)CC1 (centres unmarked)", "Emax", "25 to 100%"],
  ["COc1ccc(C(=O)N2CCN(C(C)c3nc4ccccc4c(=O)n3C)CC2)cc1 (centres unmarked)", "Emax", "< 25%"],
  ["CC(c1nc2ccc(Cl)cc2c(=O)n1C)N1CCN(C(=O)Nc2ccc(F)cc2F)C(C)C1 (centres unmarked)", "Emax", "< 25%"],
  ["CC(NCCCNS(=O)(=O)c1ccc(Cl)cc1)c1nc2ccccc2c(=O)n1C (centres unmarked)", "Emax", "25 to 100%"],
  ["COc1ccc(S(=O)(=O)N2CCN(C(C)c3nc4ccc(S(C)(=O)=O)cc4c(=O)n3C)CC2)cc1 (centres unmarked)", "Emax", "25 to 100%"],
  ["CCC(c1nc2ccccc2c(=O)n1CC)N1CCN(S(=O)(=O)c2ccc(OC)cc2)CC1 (centres unmarked)", "Emax", "> 100%"]
]}

###

Molecular target: ΔF508-CFTR (Homo sapiens, UniProt P13569, DEL508-508)
Assay: Membrane potential optical assay (FRET/VIPR), identification of correction compounds

{"columns": ["COMPOUND", "EC50"],
 "data": [
  ["COCCOc1nc(C(C)N2CCN(S(=O)(=O)c3ccc(OC)cc3)CC2)nc2ccccc12 (stereo not shown)", "25 to 60 µM"],
  ["CC(c1nc2ccc(Cl)cc2c(=O)n1C)N1CCN(c2ccc(Cl)cc2)CC1 (stereo not shown)", "< 10 µM"],
  ["CC(c1nc2ccccc2c(=O)n1C)N1CCN(S(=O)(=O)c2cccc(Cl)c2)CC1 (stereo not shown)", "10 to 25 µM"],
  ["CC(c1nc2ccccc2c(=O)[nH]1)N1CCN(S(=O)(=O)c2ccc(Br)cc2)CC1 (stereo not shown)", "10 to 25 µM"]
]}

###

Target: ΔF508-CFTR (Homo sapiens, UniProt P13569, DEL508-508)
Experiment: Membrane potential optical assay (FRET/VIPR), identification of correction compounds
pEC50: −log10 of the molar value.
QUANTITY: pEC50

{"columns": ["COMPOUND", "QUANTITY", "RECORDED_VALUE"],
 "data": [
  ["Cc1ccccc1C(=O)N1CCN(C(C)c2nc3ccc(Cl)cc3c(=O)n2C)CC1 (centres unmarked)", "pEC50", "4.60 to 5.00"],
  ["CC(c1nc2ccccc2c(=O)n1C)N1CCN(S(=O)(=O)c2c(Cl)nc3sccn23)CC1 (centres unmarked)", "pEC50", "4.22 to 4.60"],
  ["CC(C)c1ccc(S(=O)(=O)N2CCN(C(C)c3nc4ccccc4c(=O)n3C)CC2)cc1 (centres unmarked)", "pEC50", "4.22 to 4.60"],
  ["Cn1c(CN2CCN(S(=O)(=O)c3ccc(Br)cc3)CC2)nc2ccc(Cl)cc2c1=O", "pEC50", "4.22 to 4.60"],
  ["CCCn1c(C(C)N2CCN(S(=O)(=O)c3ccc(F)cc3)CC2)nc2ccccc2c1=O (centres unmarked)", "pEC50", "4.60 to 5.00"],
  ["COc1ccc(S(=O)(=O)NCCNC(C)c2nc3ccccc3c(=O)n2C)cc1 (centres unmarked)", "pEC50", "4.22 to 4.60"],
  ["COc1ccc(S(=O)(=O)N2CCN(C3(c4nc(N5CCCCC5)c5ccccc5n4)CC3)CC2)cc1", "pEC50", "> 5.00"],
  ["COc1ccc(S(=O)(=O)N2CCN(C(C)c3nc(OCCN4CCCC4)c4ccccc4n3)CC2)cc1 (centres unmarked)", "pEC50", "4.60 to 5.00"]
]}

###

Biological target: ΔF508-CFTR (Homo sapiens, UniProt P13569, DEL508-508)
Test: Membrane potential optical assay (FRET/VIPR), identification of correction compounds
Item-by-item account of EC50
QUANTITY: EC50

{"columns": ["COMPOUND", "RECORDED_VALUE"],
 "data": [
  ["COc1ccc(S(=O)(=O)N2CCC(NC(C)c3nc4ccccc4c(=O)n3C)C2)cc1 (stereo not shown) [compound 224]", "25 to 60 µM"],
  ["CCCC(c1nc(N2CCCCC2)c2ccccc2n1)N1CCN(S(=O)(=O)c2ccc(OC)cc2)CC1 (stereo not shown) [compound 339]", "< 10 µM"],
  ["CC(c1nc2ccc(Cl)cc2c(=O)n1C)N1CCN(C(=O)Nc2ccc(F)cc2F)C(C)C1 (stereo not shown) [compound 3]", "25 to 60 µM"],
  ["CCN(CC)c1nc(C(C)N2CCN(S(=O)(=O)c3ccc(Cl)cc3)CC2)nc2ccccc12 (stereo not shown) [compound 235]", "< 10 µM"],
  ["CC(c1nc2ccc(C(N)=O)cc2c(=O)n1C)N1CCN(S(=O)(=O)c2ccc(Cl)cc2)CC1 (stereo not shown) [compound 157]", "25 to 60 µM"],
  ["CC(c1nc2ccccc2c(=O)n1C)N1CCN(S(=O)(=O)c2c(Cl)ccc3nonc23)CC1 (stereo not shown) [compound 254]", "< 10 µM"],
  ["COc1ccc(S(=O)(=O)N2CCN(C(C)c3nc(N4CCC5(CC4)OCCO5)c4ccccc4n3)CC2)cc1 (stereo not shown) [compound 323]", "10 to 25 µM"],
  ["CC(c1nc2ccccc2c(=O)n1C)N1CCN(C(=O)c2ccccc2)CC1 (stereo not shown) [compound 52]", "10 to 25 µM"],
  ["Cc1cccc(S(=O)(=O)N2CCN(C(C)c3nc4ccccc4c(=O)n3C)CC2)c1 (stereo not shown) [compound 48]", "25 to 60 µM"],
  ["CC(c1nc2ccccc2c(=O)n1C)N1CCCN(S(=O)(=O)c2ccc(Br)cc2)CC1 (stereo not shown) [compound 172]", "< 10 µM"],
  ["COc1ccc(S(=O)(=O)NC2CCN(C(C)c3nc4ccccc4c(=O)n3C)CC2)cc1 (stereo not shown) [compound 164]", "25 to 60 µM"],
  ["CCC(c1nc(N2CCCCC2)c2ccccc2n1)N1CCN(S(=O)(=O)c2ccc(OC)cc2)CC1 (stereo not shown) [compound 336]", "< 10 µM"],
  ["CC(c1nc2ccccc2c(=O)n1C)N1CCN(S(=O)(=O)c2cccc3nonc23)CC1 (stereo not shown) [compound 264]", "25 to 60 µM"],
  ["COc1ccc(S(=O)(=O)N2CCN(C(C)c3nc(OC4CCCCC4)c4ccccc4n3)CC2)cc1 (stereo not shown) [compound 298]", "< 10 µM"],
  ["CCCn1c(C(C)N2CCN(S(=O)(=O)c3ccc4ccccc4c3)CC2)nc2ccccc2c1=O (stereo not shown) [compound 47]", "< 10 µM"],
  ["COc1ccc(S(=O)(=O)N2CCN(C(C)c3nc(C(C)C)c4ccccc4n3)CC2)cc1 (stereo not shown) [compound 310]", "< 10 µM"]
]}
